Structures can show the parent of a compound that is named as a salt.
This section lists IC50 readings for JAK2 tyrosine kinase (Homo sapiens, UniProt O60674).
endpoint_name: IC50 (nM)

1: CNC(=O)c1ccc(Nc2cnccn2)nc1N[C@@H](C)c1ccc(F)cc1
2: C[C@H](Nc1nc(Nc2cnccn2)cc(-c2cncnc2)n1)c1ccc(F)cc1
3: C[C@H](Nc1cc(OCCCO)cc(Nc2cnccn2)n1)c1ccc(F)cc1 [Example 41, hydrochloride]
I'd appreciate it if you sorted the entries above by their IC50, lowest to highest. Provide your answer as the labels ordered per the instruction. 3, 2, 1

1: C[C@H](Nc1nc(NCC(N)=O)cc(Nc2cnccn2)n1)c1ccc(F)cc1 [Example 79, hydrochloride]
2: C[C@H](Nc1nc(Nc2cnccn2)cc(OCCO)n1)c1ccc(F)cc1 [Example 95, hydrochloride]
Pick the one with the larger IC50: 1 vs 2 Use the label to indicate which entry you chose. 1
(1: 4.3 nM, 2: 2.2 nM)
